Tested on: OCI-AML2
assay: cell viability relative to vehicle control; higher = less cytotoxic;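 note: after 48 h exposure read by CellTiter-Glo luminescence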
assay-setup: 10 µM; SRSF2 genotype: wt/wt
Exam item: assign criterion met to entries whose cell viability is below 90% and criterion not met to entries at or above 90%. Note that a value of exactly 90% receives criterion not met.

* CC(C)CCCC(C)C1CCC2C3=CC=C4CC(O)CCC4(C)C3CCC21C (stereo not given) [7-Dehydrocholesterol] | criterion not met
* Cc1ccc(S(=O)(=O)C=CC#N)cc1 | criterion met
* O=C(CCCCCCNC(=O)c1cnc(N(c2ccccc2)c2ccccc2)nc1)NO | criterion met
* Cc1nc2cccc(N)c2c(=O)n1C1CCC(=O)NC1=O (stereo not given) [Avadomide(CC-122)] | criterion not met

### Prompt Does the reported cell viability of the following compound sit strictly below 90%? "COc1ccc(CC(=O)Nc2nc3c(s2)CCc2ccccc2-3)cc1OC"
### Response criterion met

* * *

Test system: OCI-AML2
assay: cell viability relative to vehicle control; higher = less cytotoxic
assay-setup: 10 µM; SRSF2 genotype: P95H/wt
Counter-ions that a name gives are not always drawn.
The compounds listed here are annotated with their cell viability.
Give just the number in %; leave the unit off.

• CCOC(=O)c1c(CSc2ccccc2)n(C)c2cc(Br)c(O)c(CN(C)C)c12 [Arbidol HCl] = 53.5
• CC(C)n1nc(-c2ccc(NC(=O)Nc3cc(C(F)(F)F)ccc3F)cc2)c2c(N)ncnc21 = 2.08
• Cc1nc(-c2cccnc2)sc1C(=O)Nc1ccccc1-c1cn2c(CN3CCOCC3)csc2n1 = 95.3
• NC(=O)c1ccc(N(C(N)=O)c2c(F)cccc2F)nc1-c1ccc(F)cc1F = 95.3
• O=c1cc(CN2CCOCC2)occ1OCCCCCSc1ccnc2cc(C(F)(F)F)ccc12 = 27.6

### Prompt Notebook entry, OCI-AML2 assay: cell viability of "CCc1c(Cl)c(O)c(Cl)c(O)c1C(=O)O[C@H]1[C@H](O)[C@H](OC)[C@H](OC/C2=C\C=C\C[C@H](O)/C(C)=C/[C@H](CC)[C@@H](O[C@@H]3OC(C)(C)[C@@H](OC(=O)C(C)C)[C@H](O)[C@@H]3O)/C(C)=C/C(C)=C/C[C@@H]([C@@H](C)O)OC2=O)O[C@@H]1C" = ?
### Response 110

### Prompt Also, "COc1ccc(COc2ccc(CC#N)cc2)cc1" please.
### Response 96.3

* * *

The compounds listed here are annotated with their cell viability.
Test system: MOLM14
assay: cell viability relative to vehicle control; higher = less cytotoxic
assay-setup: 10 µM; SRSF2 genotype: SRSF2 wt/wt
Structures can show the parent of a compound that is named as a salt.

Example results:
- C=C[C@]1(C)C[C@@H](OC(=O)CSC(C)(C)CNC(=O)[C@H](N)C(C)C)[C@]2(C)[C@H](C)CC[C@]3(CCC(=O)[C@H]32)[C@@H](C)[C@@H]1O [Valnemulin HCl]: 80%
- C[C@]12CCC3=C4CCC(=O)C=C4CC[C@H]3[C@@H]1CC[C@@]2(O)CC#N: 103%
- COC(=O)C1=C(C)NC(C)=C(C(=O)OC(C)C)C1c1cccc2nonc12 (stereo not given): 100%
- CC1(C)CCCC2(C)C1CCC1(C)OCCC12 (single isomer, unassigned; (-)) [(-)-Ambroxide]: 96.4%
- COc1cc(C2Oc3ccc(C4Oc5cc(O)cc(O)c5C(=O)C4O)cc3OC2CO)ccc1O (stereo not given): 98.9%
- O=C(O)CCc1ccc(NCc2cccc(Oc3ccccc3)c2)cc1: 95.7%
- COc1ccccc1N1CCN(CCN2C(=O)CC3(CCCC3)CC2=O)CC1 [BMY 7378 Dihydrochloride]: 95.2%
- C=C1C[C@@]23CC[C@H]4[C@@](C)(CCC[C@@]4(C)C(=O)O)[C@@H]2CC[C@@H]1C3: 103%

### Prompt Could you share which cell viability value was measured for O=C(O)CC(O)C(=O)O (stereo not given) ?
### Response 101%

### Prompt Also, "Oc1nc(-c2ccc(C(F)(F)F)cc2)nc2c1CSCC2" please.
### Response 95.5%

### Prompt Also, "CCOC(=O)c1ccc(NC2CCCCC2)c(N)c1" please.
### Response 102%

### Prompt Also, "CCc1ccc(OCc2ccccc2C(=O)Nc2ccc3nc(C)cc(N)c3c2)cc1" please.
### Response 0.57%

### Prompt Also, "C=C1[C@H](CO)[C@@H](O)C[C@@H]1n1cnc2c(=O)[nH]c(N)nc21" please.
### Response 106%

### Prompt Also, "COc1ccc(COc2ccc(CC#N)cc2)cc1" please.
### Response 110%
